Reported conditions: in DMF, 293.15 K
Recorded endpoint: solubility (mole fraction)
Please give the numeric answer without any surrounding text.

Cc1nnc(C(C)C)n1[C@@H]1C[C@H]2CC[C@@H](C1)N2CC[C@H](NC(=O)C1CCC(F)(F)CC1)c1ccccc1 yielded solubility (mole fraction) of 0.000117

###

Reported conditions: in ethanol, 308.15 K
Recorded endpoint: solubility (mole fraction)
Give a plain numeric answer without units written out.

get_value(item= Cc1nnc(C(C)C)n1[C@@H]1C[C@H]2CC[C@@H](C1)N2CC[C@H](NC(=O)C1CCC(F)(F)CC1)c1ccccc1 , readout=solubility (mole fraction)) returns 0.00196

###

Reported conditions: in water, 278.15 K
Recorded endpoint: solubility (mole fraction)
In your answer, state the number alone without any accompanying words.

So, Cc1nnc(C(C)C)n1[C@@H]1C[C@H]2CC[C@@H](C1)N2CC[C@H](NC(=O)C1CCC(F)(F)CC1)c1ccccc1 ? Its solubility (mole fraction) was 5.73e-06

###

Reported conditions: in DMF, 318.15 K
Recorded endpoint: solubility (mole fraction)
// return just the number, without any unit appended

Lookup result for Cc1nnc(C(C)C)n1[C@@H]1C[C@H]2CC[C@@H](C1)N2CC[C@H](NC(=O)C1CCC(F)(F)CC1)c1ccccc1 ; measured solubility (mole fraction): 0.000744

###

Reported conditions: in DMF, 298.15 K
Recorded endpoint: solubility (mole fraction)
Answer with the value's number alone.

For this compound ( Cc1nnc(C(C)C)n1[C@@H]1C[C@H]2CC[C@@H](C1)N2CC[C@H](NC(=O)C1CCC(F)(F)CC1)c1ccccc1 ), measured solubility (mole fraction) is 0.000181

###

Reported conditions: in DMSO, 313.15 K
Recorded endpoint: solubility (mole fraction)
Enter the number alone.

For this molecule ( Cc1nnc(C(C)C)n1[C@@H]1C[C@H]2CC[C@@H](C1)N2CC[C@H](NC(=O)C1CCC(F)(F)CC1)c1ccccc1 ), measured solubility (mole fraction) is 0.000273

###

Reported conditions: in ethanol, 283.15 K
Recorded endpoint: solubility (mole fraction)
Form field (numeric): enter value without unit.

Lab book: solubility (mole fraction) of Cc1nnc(C(C)C)n1[C@@H]1C[C@H]2CC[C@@H](C1)N2CC[C@H](NC(=O)C1CCC(F)(F)CC1)c1ccccc1 noted as 0.00038

###

Reported conditions: in DMSO, 308.15 K
Recorded endpoint: solubility (mole fraction)
# output: bare number, no unit

The recorded solubility (mole fraction) for entry Cc1nnc(C(C)C)n1[C@@H]1C[C@H]2CC[C@@H](C1)N2CC[C@H](NC(=O)C1CCC(F)(F)CC1)c1ccccc1 equals 0.000189
